Each item that follows carries a reported IC50.
Molecular target: α4β2*-nAChR (Mus musculus, UniProt O70174+Q9ERK7)
Sequence (Q9ERK7 26-501): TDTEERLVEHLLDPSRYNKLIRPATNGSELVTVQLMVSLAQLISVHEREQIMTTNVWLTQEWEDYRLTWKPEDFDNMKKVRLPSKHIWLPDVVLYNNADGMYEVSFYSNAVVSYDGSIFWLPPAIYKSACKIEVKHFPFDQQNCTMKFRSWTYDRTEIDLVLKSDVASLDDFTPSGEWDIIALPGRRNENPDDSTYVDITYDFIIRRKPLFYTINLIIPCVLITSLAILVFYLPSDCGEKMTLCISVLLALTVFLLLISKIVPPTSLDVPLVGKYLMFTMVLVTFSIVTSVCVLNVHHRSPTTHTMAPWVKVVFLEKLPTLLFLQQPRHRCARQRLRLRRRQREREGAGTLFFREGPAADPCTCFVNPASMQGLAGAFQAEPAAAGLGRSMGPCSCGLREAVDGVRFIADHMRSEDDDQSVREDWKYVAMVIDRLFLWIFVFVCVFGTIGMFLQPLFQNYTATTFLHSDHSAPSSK
Sequence (O70174 31-629): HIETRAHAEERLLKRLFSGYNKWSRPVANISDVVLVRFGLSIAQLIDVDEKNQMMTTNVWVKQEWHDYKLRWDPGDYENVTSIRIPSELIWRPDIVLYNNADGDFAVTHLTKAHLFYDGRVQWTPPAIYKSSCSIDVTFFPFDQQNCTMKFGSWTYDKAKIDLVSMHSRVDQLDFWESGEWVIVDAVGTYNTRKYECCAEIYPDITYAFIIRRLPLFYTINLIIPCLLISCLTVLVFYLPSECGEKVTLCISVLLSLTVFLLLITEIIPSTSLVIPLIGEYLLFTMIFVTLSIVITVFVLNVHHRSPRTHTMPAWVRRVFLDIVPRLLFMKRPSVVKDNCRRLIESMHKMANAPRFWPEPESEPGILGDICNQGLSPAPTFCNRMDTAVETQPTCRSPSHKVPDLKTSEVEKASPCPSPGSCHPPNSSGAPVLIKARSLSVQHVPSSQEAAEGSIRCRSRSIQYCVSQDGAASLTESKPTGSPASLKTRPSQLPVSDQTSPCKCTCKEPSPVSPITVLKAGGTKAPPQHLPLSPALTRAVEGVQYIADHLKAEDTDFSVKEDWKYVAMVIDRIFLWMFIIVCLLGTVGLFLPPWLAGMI
Assay: biochemical
Conditions: IC50 Desensitization
Note to self: number, then unit, no commentary.

Clc1ccc(C2CC3CCC2N3)cn1 (racemic) [epibatidine, (±)-epibatidine] ... 0.37 nM

We now examine a further molecule.
## Input I would be grateful if you could share the reported IC50 for O=c1cccc2n1C[C@@H]1CNC[C@H]2C1 .
## Output 2.7 nM

###

Target: α4β2*-nAChR (Mus musculus, UniProt O70174+Q9ERK7)
Assay: biochemical
Conditions: IC50 for desensitization of the LS component
Each item that follows carries a reported pIC50.
Here pIC50 is given on a logarithmic scale as minus log10 of the concentration in mol/L.

O=c1cccc2n1C[C@@H]1CNC[C@H]2C1 ... 8.27

## Input Form field: pIC50 recorded for Clc1ccc(C2CC3CCC2N3)cn1 (racemic) [epibatidine, (±)-epibatidine] with α4β2*-nAChR (Mus musculus, UniProt O70174+Q9ERK7) (enter value)
## Output 9.42
